- ASSAY: shake flask on a mixture of 185; loss from the water phase only; LC-QTOF peak areas
- PARTICULARS: room
Below, each of the molecules is paired with its reported log partition n-octane / HPLC water, unbuffered, traces of methanol / DMSO value.
Entry rule: numbers only, all in log10.

Sample answers from the record:
CCOc1ccc2[nH]cc(C(=O)NCc3ccccc3)c(=O)c2n1; -1.123
Nc1cc2c3c(c1)C(c1ccccc1)=N[C@@H](NC(=O)c1cccnc1)C(=O)N3CC2; -1.018
CCCCNS(=O)(=O)c1ccc(C)cc1; 0.3273

INPUT: Look up log partition n-octane / HPLC water, unbuffered, traces of methanol / DMSO: `CCC(C)(CC)c1cc(NC(=O)c2c(OC)cccc2OC)on1`
OUTPUT: 1.176

INPUT: // repeat for `c1ccc2[nH]c(-c3cscn3)nc2c1` and report
OUTPUT: -1.018
